test system: ERK phosphorylation in KYSE-520 cells; experiment: Phospho-ERK cellular assay (Advanced phospho-ERK1/2 (Thr202/Tyr204) TR-FRET kit); format: cell-based; conditions: Homo sapiens, KYSE-520, 2 h, KYSE-520 cells, 2 h at 37° C., TR-FRET; read-out: pERK IC50
endpoint: IC50

| smilesCode | experimentalTarget | result |
| --- | --- | --- |
| COc1nc(N)ccc1Sc1cnc2[nH]c(N3CCC4(CC3)Cc3ccccc3[C@H]4N)nc2n1 | ERK phosphorylation in KYSE-520 cells | < 1 µM |
| N[C@@H]1c2ccccc2CC12CCN(c1nc3nc(Sc4ccncc4OC(F)(F)F)cnc3[nH]1)CC2 | ERK phosphorylation in KYSE-520 cells | < 1 µM |
| N[C@@H]1c2cccc(F)c2CC12CCN(c1nc3nc(Sc4ccncc4Cl)cnc3[nH]1)CC2 | ERK phosphorylation in KYSE-520 cells | 1 to 5 µM |
| COc1cnccc1Sc1cnc2nc(N3CCC4(CC3)Cc3ccc(F)cc3[C@H]4N)[nH]c2n1 | ERK phosphorylation in KYSE-520 cells | < 1 µM |

====

pIC50 overview
Target: SHP-2 enzyme (Met1-Leu525) (Homo sapiens, UniProt Q06124)
Construct: synthetized by Origene, Met1-Leu525, cat #TP750155
Sequence (Q06124 1-525): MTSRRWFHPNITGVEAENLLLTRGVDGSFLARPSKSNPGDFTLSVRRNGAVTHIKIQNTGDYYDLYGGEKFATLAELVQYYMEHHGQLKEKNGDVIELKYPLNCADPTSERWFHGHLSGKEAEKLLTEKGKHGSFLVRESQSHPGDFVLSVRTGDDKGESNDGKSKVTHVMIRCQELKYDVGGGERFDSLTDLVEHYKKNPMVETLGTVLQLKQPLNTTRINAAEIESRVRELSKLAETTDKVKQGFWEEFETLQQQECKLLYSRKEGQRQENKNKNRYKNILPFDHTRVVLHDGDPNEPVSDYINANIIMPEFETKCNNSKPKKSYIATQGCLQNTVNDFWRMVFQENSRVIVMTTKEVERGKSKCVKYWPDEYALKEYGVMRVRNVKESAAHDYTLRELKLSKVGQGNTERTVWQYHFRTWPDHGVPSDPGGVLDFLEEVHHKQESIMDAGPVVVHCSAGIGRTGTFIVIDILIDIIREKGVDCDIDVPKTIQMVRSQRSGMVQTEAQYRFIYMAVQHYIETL
Assay: SHP2 inhibition enzymatic assay (DiFMUP substrate, IRS1 peptide activation)
Conditions: SHP2 wt; activated by 500 nM IRS1 peptide; 75 μM DiFMUP substrate
pIC50: −log10 of the molar value.

| compound | experimentalTarget | pIC50 |
| --- | --- | --- |
| N[C@@H]1c2ccccc2CC12CCN(c1nc3nc(Sc4cccc5c4OC(F)(F)O5)cnc3[nH]1)CC2 | SHP-2 enzyme (Met1-Leu525) (Homo sapiens, UniProt Q06124) | > 6.30 |
| Nc1nccc(Sc2cnc3nc(N4CCC5(CC4)Cc4cccc(F)c4[C@H]5N)[nH]c3n2)c1Cl | SHP-2 enzyme (Met1-Leu525) (Homo sapiens, UniProt Q06124) | > 6.30 |
| CN1C(=O)C(F)(F)c2c(Sc3cnc4[nH]c(N5CCC6(CC5)Cc5ccccc5[C@H]6N)nc4n3)cccc21 | SHP-2 enzyme (Met1-Leu525) (Homo sapiens, UniProt Q06124) | > 6.30 |
| N[C@@H]1c2ccccc2CC12CCN(c1nc3nc(N4CCCc5ncccc54)cnc3[nH]1)CC2 | SHP-2 enzyme (Met1-Leu525) (Homo sapiens, UniProt Q06124) | > 6.30 |
| N[C@@H]1c2cccnc2CC12CCN(c1nc3ncc(Sc4ccnc(NC5CC5)c4Cl)nc3[nH]1)CC2 | SHP-2 enzyme (Met1-Leu525) (Homo sapiens, UniProt Q06124) | > 6.30 |
| FC(F)(F)c1ncccc1Sc1cnc2[nH]c(N3CCC(Cn4ccnc4)CC3)nc2n1 | SHP-2 enzyme (Met1-Leu525) (Homo sapiens, UniProt Q06124) | 5.52 to 6.30 |
| Nc1nccc(Sc2cnc3[nH]c(N4CCC5(CC4)Oc4ccccc4[C@H]5N)nc3n2)c1Cl | SHP-2 enzyme (Met1-Leu525) (Homo sapiens, UniProt Q06124) | > 6.30 |
| N[C@@H]1c2cc(F)c(F)cc2CC12CCN(c1nc3nc(Sc4ccnc(NC5CC5)c4Cl)cnc3[nH]1)CC2 | SHP-2 enzyme (Met1-Leu525) (Homo sapiens, UniProt Q06124) | > 6.30 |
| N#Cc1ncccc1Sc1cnc2[nH]c(N3CCC4(CC3)Cc3ccccc3[C@H]4N)nc2n1 | SHP-2 enzyme (Met1-Leu525) (Homo sapiens, UniProt Q06124) | > 6.30 |
| CC1(N)CCN(c2nc3nc(Sc4ccnc5ncccc45)cnc3[nH]2)CC1 | SHP-2 enzyme (Met1-Leu525) (Homo sapiens, UniProt Q06124) | 5.52 to 6.30 |
| CCn1c(N2CCC(C)(N)CC2)nc2nc(Sc3cccnc3C(F)(F)F)cnc21 | SHP-2 enzyme (Met1-Leu525) (Homo sapiens, UniProt Q06124) | 5.52 to 6.30 |
| CC1(N)CCN(c2nc3nc(Sc4cccc(O)n4)cnc3[nH]2)CC1 | SHP-2 enzyme (Met1-Leu525) (Homo sapiens, UniProt Q06124) | < 5.52 |
| N[C@@H]1c2ccccc2CC12CCN(c1nc3ncc(Sc4ccnc5nccnc45)nc3[nH]1)CC2 | SHP-2 enzyme (Met1-Leu525) (Homo sapiens, UniProt Q06124) | > 6.30 |
| N[C@@H]1c2cccnc2CC12CCN(c1nc3ncc(Sc4ccnc(Cl)c4Cl)nc3[nH]1)CC2 | SHP-2 enzyme (Met1-Leu525) (Homo sapiens, UniProt Q06124) | > 6.30 |
| N[C@@H]1c2ccccc2CC12CCN(c1nc3nc(Sc4ccc[n+]([O-])c4C(F)(F)F)cnc3[nH]1)CC2 | SHP-2 enzyme (Met1-Leu525) (Homo sapiens, UniProt Q06124) | > 6.30 |
| N[C@@H]1c2ccncc2CC12CCN(c1nc3ncc(Sc4ccnc(NC5CC5)c4Cl)nc3[nH]1)CC2 | SHP-2 enzyme (Met1-Leu525) (Homo sapiens, UniProt Q06124) | > 6.30 |
| COc1cc2c(cc1F)[C@@H](N)C1(CCN(c3nc4ncc(Sc5ccncc5Cl)nc4[nH]3)CC1)C2 | SHP-2 enzyme (Met1-Leu525) (Homo sapiens, UniProt Q06124) | > 6.30 |
| N[C@H]1c2ccccc2CC12CCN(c1nc3nc(Sc4cccnc4C(F)(F)F)cnc3[nH]1)CC2 | SHP-2 enzyme (Met1-Leu525) (Homo sapiens, UniProt Q06124) | > 6.30 |
| CNc1nccc(Sc2cnc3[nH]c(N4CCC5(CC4)Cc4ccccc4[C@H]5N)nc3n2)c1Cl | SHP-2 enzyme (Met1-Leu525) (Homo sapiens, UniProt Q06124) | > 6.30 |
| CC1(N)CCN(c2nc3ncc(Sc4ccc(-n5nc[nH]c5=O)cc4)nc3[nH]2)CC1 | SHP-2 enzyme (Met1-Leu525) (Homo sapiens, UniProt Q06124) | 5.52 to 6.30 |
| CC(N)CCNc1nc2nc(Sc3cccnc3C(F)(F)F)cnc2[nH]1 (stereo not shown) | SHP-2 enzyme (Met1-Leu525) (Homo sapiens, UniProt Q06124) | 5.52 to 6.30 |
| FC(F)(F)c1ncccc1Sc1cnc2[nH]c(NC3CC4(CNC4)C3)nc2n1 | SHP-2 enzyme (Met1-Leu525) (Homo sapiens, UniProt Q06124) | 5.52 to 6.30 |
| Nc1nccc(Sc2cnc3[nH]c(N4CCC5(CC4)Cc4ccccc4[C@H]5N)nc3n2)c1Cl | SHP-2 enzyme (Met1-Leu525) (Homo sapiens, UniProt Q06124) | > 6.30 |
| N#Cc1c[nH]c2nccc(Sc3cnc4[nH]c(N5CCC6(CC5)Cc5ccccc5[C@H]6N)nc4n3)c12 | SHP-2 enzyme (Met1-Leu525) (Homo sapiens, UniProt Q06124) | > 6.30 |
| CC1(N)CCN(c2nc3nc(Sc4ccc5ccccc5c4)cnc3[nH]2)CC1 | SHP-2 enzyme (Met1-Leu525) (Homo sapiens, UniProt Q06124) | 5.52 to 6.30 |
| NC(=O)C1CCN(c2nc3nc(Sc4cccnc4C(F)(F)F)cnc3[nH]2)CC1 | SHP-2 enzyme (Met1-Leu525) (Homo sapiens, UniProt Q06124) | < 5.52 |
| N[C@@H]1c2ccccc2CC12CCN(c1nc3nc(Sc4ccc[nH]c4=O)cnc3[nH]1)CC2 | SHP-2 enzyme (Met1-Leu525) (Homo sapiens, UniProt Q06124) | > 6.30 |
| N[C@@H]1c2cccnc2CC12CCN(c1nc3ncc(Sc4cccc(Cl)c4Cl)nc3[nH]1)CC2 | SHP-2 enzyme (Met1-Leu525) (Homo sapiens, UniProt Q06124) | > 6.30 |
| N[C@@H]1c2cccnc2CC12CCN(c1nc3ncc(Sc4ccc5c(c4Cl)NC(=O)CO5)nc3[nH]1)CC2 | SHP-2 enzyme (Met1-Leu525) (Homo sapiens, UniProt Q06124) | > 6.30 |
| FC(F)(F)c1ncccc1Sc1cnc2[nH]c(NCC3CCNCC3)nc2n1 | SHP-2 enzyme (Met1-Leu525) (Homo sapiens, UniProt Q06124) | < 5.52 |
| CC1(N)CCN(c2nc3ncc(Sc4cccnc4)nc3[nH]2)CC1 | SHP-2 enzyme (Met1-Leu525) (Homo sapiens, UniProt Q06124) | 5.52 to 6.30 |
